measured_on: MEK5 PB1 domain binding to MEKK2 (MAP3K2) mutant PB1, human
assay_summary: mutant MEKK2 PB1-MEK5 interaction blockers – biochemical, bead multiplex flow cytometry, dose response (AID 1895)
condition_summary: Bead-based multiplex flow cytometry
The source made the active and inactive calls. How the calls were made is not given here.
measured_attribute: EC50

compound: O=C(OCC1O[C@@H](OC(=O)c2cc(O)c(O)c(O)c2)[C@@H](OC(=O)c2cc(O)c(O)c(O)c2)[C@@H](OC(=O)c2cc(O)c(O)c(O)c2)[C@@H]1OC(=O)c1cc(O)c(O)c(O)c1)c1cc(O)c(O)c(O)c1 (stereo partly drawn)
EC50: > 30 µM (inactive)
--
compound: CCOC(=O)c1c(-c2ccc(-c3ccccc3)cc2)csc1NC(=O)CNCCN(C)C
EC50: 1.09 µM
--
compound: N#CC(C#N)=c1ccc2c(c1)N1C(c3ccccc3)=CC(c3ccccc3)C3CCCCC31N=2 (stereo not drawn)
EC50: > 30 µM (inactive)
--
compound: CCCCCCCCCCOC(=O)Cn1c(COc2cccc(C)c2)[n+](C)c2ccccc21
EC50: > 30 µM (inactive)
--
compound: CC(=O)c1c(C)[nH]c(C(=O)NC2=NCCS2)c1C
EC50: > 30 µM (inactive)
--
compound: NC(=NCCCCCCN=C(N)/N=C(\N)Nc1ccc(Cl)cc1)/N=C(\N)Nc1ccc(Cl)cc1
EC50: > 30 µM (inactive)

-- ask Identify measured EC50 associated with CCCCN(CC)CCNC(=O)c1cc2c(-c3ccc(Cl)cc3)nn(C)c2s1
-- reply 22.8 µM
